This collection of values is drawn from ChEMBL document CHEMBL1817584.

Tested on: Staphylococcus aureus
PROTOCOL_TEXT: Antibacterial activity against Staphylococcus aureus ATCC 6538 after 24 hrs by twofold serial dilution method
Assay type: functional
MEASUREMENT_CONDITIONS: ATCC 6538, 24 h
Kindly apply the following: Criterion met if MIC is less than 20 µg/mL, Criterion not met in every other case.

stdin: hey, is MIC for CCn1cc(C(=O)O)c(=O)c2cc(F)c(N3CCNCC3)cc21 lower than 20 µg/mL or not?
stdout: Criterion met

stdin: hey, is MIC for BrCCOc1ccc2ccccc2c1 lower than 20 µg/mL or not?
stdout: Criterion not met

stdin: hey, is MIC for O=C1c2cccc3c(Br)ccc(c23)C(=O)N1CCCCCCBr lower than 20 µg/mL or not?
stdout: Criterion not met

stdin: hey, is MIC for Cc1cccc(C[n+]2cnn(CC(O)(Cn3c[n+](Cc4cccc(C)c4)cn3)c3ccc(F)cc3F)c2)c1.[Br-].[Br-] lower than 20 µg/mL or not?
stdout: Criterion met

stdin: hey, is MIC for O=C1c2cccc3c(Br)ccc(c23)C(=O)N1CCCBr lower than 20 µg/mL or not?
stdout: Criterion not met

stdin: hey, is MIC for F[P-](F)(F)(F)(F)F.F[P-](F)(F)(F)(F)F.OC(Cn1c[n+](Cc2ccc(Cl)cc2Cl)cn1)(Cn1c[n+](Cc2ccc(Cl)cc2Cl)cn1)c1ccc(F)cc1F lower than 20 µg/mL or not?
stdout: Criterion not met

stdin: hey, is MIC for CCCCCCCCCCCCCCCC[n+]1cnn(CC(O)(Cn2c[n+](CCCCCCCCCCCCCCCC)cn2)c2ccc(F)cc2F)c1.[Br-].[Br-] lower than 20 µg/mL or not?
stdout: Criterion met

stdin: hey, is MIC for OC(Cn1c[n+](Cc2ccc(Cl)cc2)cn1)(Cn1c[n+](Cc2ccc(Cl)cc2)cn1)c1ccc(F)cc1F.[Cl-].[Cl-] lower than 20 µg/mL or not?
stdout: Criterion not met

stdin: hey, is MIC for Fc1ccc(Cn2cncn2)c(F)c1 lower than 20 µg/mL or not?
stdout: Criterion not met
